System: IGROV-1
Protocol summary: NCI tumour cell line growth inhibition, 48 h
The source made the active and inactive calls. Cut-off read from the data, not from the text of the source: active = GI50 up to about 1.1 µM and inactive = higher.
Below, each of the compounds is paired with its reported GI50 value.

Below are worked cases with known answers.
Compound | Quantity measured | Measured result
COC(=O)C(=O)C(C(=O)C(=O)Nc1ccccc1C(C)=O)c1nc2ccc(C(=O)c3ccccc3)cc2nc1O (stereo unspecified) | GI50 | 20.2 µM (inactive)
N#CC(C#N)=CNC(=S)Nc1ccc(S(=O)(=O)Nc2nccs2)cc1 | GI50 | > 100 µM (inactive)
CCc1n[nH]c(=O)n1CC | GI50 | > 100 µM (inactive)
O=[N+]([O-])c1cccc(S(=O)(=O)N/N=C/c2cc(I)cc([N+](=O)[O-])c2O)c1 | GI50 | 36.3 µM (inactive)
O=C1O/C(=C\c2ccc(O)cc2)C(c2ccc(O)c(Cl)c2)=C1Cl | GI50 | 40.1 µM (inactive)
Cc1cc2c(cc1Cl)Sc1nnc(Nc3ccccc3)n1S2(=O)=O | GI50 | 10 µM (inactive)
CC(C)CC1N=C(OCc2ccccc2)OC1=O (stereo unspecified) | GI50 | > 100 µM (inactive)
Cc1ccc2c(=O)c(C(=O)N(CCO)CCO)c[nH]c2n1 | GI50 | > 100 µM (inactive)

Reported GI50 ( C=CCN(c1cc(OC)c(NC(C)=O)cc1[N+](=O)[O-])S(C)(=O)=O ) = > 100 µM (inactive)

Reported GI50 ( COc1ccc(Nc2nc3c(N)cc(C(F)(F)F)cc3nc2-c2ccccc2)cc1 ) = 52 µM (inactive)

Reported GI50 ( NC(Cc1n[nH]c2ccccc12)C(=O)O (stereo unspecified) ) = > 100 µM (inactive)

###

Tested on: A498
Protocol summary: NCI tumour cell line growth inhibition, 48 h
The source made the active and inactive calls. Rule as the data show it: active = GI50 up to about 1.1 µM and inactive = higher.
Quantity measured: GI50

Compound | GI50
O=C(COC(=O)c1cccc2c(=O)c3ccccc3[nH]c12)Nc1ccc(Cl)cc1 | 7.96 µM (inactive)
O=NN(CC1(O)OCC(O)C(O)C1O)C(Cc1c[nH]c2ccccc12)C(=O)O (stereo not given) | > 100 µM (inactive)
COc1ccccc1/C=C1\S/C(=N/Nc2nc(C)c(C(C)=O)s2)NC1=O | 22.8 µM (inactive)

Reported GI50 ( Cc1nc(/C(=N\n2cnnc2)Nc2ccc(Br)cc2)no1 ) = > 100 µM (inactive)

Reported GI50 ( Cc1cccc(N2C(=O)C(=O)C(c3nc4ccccc4s3)/C(=N/NC(=S)NN)C2=O)c1C (stereo not given) ) = > 100 µM (inactive)

###

Below, each of the compounds is paired with its reported GI50 value.
Test system: A498
Protocol summary: NCI tumour cell line growth inhibition, 48 h
The source made the active and inactive calls. No stated cut-off is given here; in the data, active = GI50 up to about 1.1 µM and inactive = higher.

Below are worked cases with known answers.
Compound | Quantity measured | Measured result
CCOC(=O)c1sc2[n+](c1C)C(=O)/C(=C/c1ccc([N+](=O)[O-])cc1)S2 | GI50 | > 100 µM (inactive)
CSCC[C@@H](NC(=O)[C@H](CC(C)C)NC(=O)C(Cc1cnc[nH]1)NC(=O)CNC(=O)[C@@H](NC(=O)[C@H](C)NC(=O)[C@H](Cc1cn(C=O)c2ccccc12)NC(=O)[C@H](CCC(N)=O)NC(=O)[C@@H](N)CC(N)=O)C(C)C)C(N)=O (stereo partly drawn) | GI50 | > 100 µM (inactive)
CC(C)(Oc1ccc(-c2cccc3ccccc23)cc1)C(=O)O | GI50 | > 100 µM (inactive)
O=C(O)[C@@H]1CCC(=O)N1C(c1ccc2c(c1)OCO2)c1ccc2c(c1)OCO2 | GI50 | > 100 µM (inactive)
Cn1cc(C=C(C#N)C#N)c(=O)n(C)c1=O | GI50 | > 100 µM (inactive)

// compound NC(=O)C(=O)n1ncc(Cl)c(Cl)c1=O , assay A498, GI50 value: > 72.9 µM (inactive)

// compound CC(C)(C)SC1=CCC[C@@H](P(=O)(c2ccccc2)c2ccccc2)[C@@H]2CCC[C@@H]12 , assay A498, GI50 value: 15.8 µM (inactive)

// compound COC(=O)C1=C(O)C(O)=C(C(=O)OC)CC1 , assay A498, GI50 value: > 100 µM (inactive)

// compound N#CC(C#N)=C1SCC(=O)CS1 , assay A498, GI50 value: > 100 µM (inactive)

// compound CC(C)(C)NNC(=O)/C(=C/c1ccc([N+](=O)[O-])cc1)NC(=O)c1ccccc1 , assay A498, GI50 value: > 100 µM (inactive)

// compound COc1ccc(/[N+]([O-])=C/c2ccc(OC(=S)S)c(OC)c2)cc1 , assay A498, GI50 value: > 100 µM (inactive)

// compound O=C(OCCN1CCCCC1)C(c1ccccc1)C1(O)CCSCC1 (stereo not drawn) , assay A498, GI50 value: > 100 µM (inactive)

// compound CC(C)CC(O)P(=O)(O)O.NC1CCCCC1 (stereo not drawn) , assay A498, GI50 value: > 100 µM (inactive)

// compound C=C1C(=O)OC2C1C(=O)C/C(C)=C/CCC1(C)OC21 (stereo not drawn) , assay A498, GI50 value: 23.1 µM (inactive)

// compound CC1=CC[C@@]2(CO)[C@@H]([C@@H]1C)[C@H]1CC[C@@H]3[C@@]4(C)CC[C@H](O)C(C)(C)[C@@H]4CC[C@@]3(C)[C@]1(C)C[C@@H]2O , assay A498, GI50 value: 24 µM (inactive)

// compound COC(OC)[C@@H]1OC[C@H](n2ccc(=O)[nH]c2=O)[C@H]1O , assay A498, GI50 value: > 100 µM (inactive)

// compound CC(=O)C(C(=O)c1ccc(C)cc1)[C@H]1OC(C)(C)O[C@H]1[C@H]1COC(C)(C)O1 (stereo partly drawn) , assay A498, GI50 value: 7.55 µM (inactive)

// compound C=C(C)[C@@H]1C[C@H]2O[C@](O)(C(=C)CC(=O)/C=C(/C)C[C@@H]3OC(=O)[C@]24O[C@@H]34)[C@H]1O , assay A498, GI50 value: > 100 µM (inactive)

###

Test system: HCT-116
Protocol summary: NCI tumour cell line growth inhibition, 48 h
Active and inactive are the calls of the source. No stated cut-off is given here; in the data, active = GI50 up to about 1.1 µM and inactive = higher.
Quantity measured: GI50

Below are worked cases with known answers.
Compound | Measured result
CCN1CN(c2ccccc2)C2(CCN(CC3COc4ccccc4O3)CC2)C1=O (stereo unspecified) | 17.6 µM (inactive)
CC(C)(C)c1cc(Br)c(O)c(CN(Cc2cc(C(C)(C)C)cc(Br)c2O)C2CCCCC2)c1 | 12.5 µM (inactive)

Reported GI50 ( N#CCC(=O)N1CCCCCCC1 ) = > 100 µM (inactive)

Reported GI50 ( N#CCC1(c2ccc(Cl)cc2)NC(=O)c2ccccc21 (stereo unspecified) ) = > 100 µM (inactive)

Reported GI50 ( Clc1ncnc(Cl)c1Cl ) = > 100 µM (inactive)

Reported GI50 ( Cc1nc2c(n1C)C(=O)c1nc(CBr)[nH]c(=O)c1C2=O ) = > 100 µM (inactive)

Reported GI50 ( C[N+](C)(CCCn1ccnc1[N+](=O)[O-])CCCn1ccnc1[N+](=O)[O-] ) = > 100 µM (inactive)

Reported GI50 ( CSCC[C@@H](NC(=O)[C@H](CC(C)C)NC(=O)C(Cc1cnc[nH]1)NC(=O)CNC(=O)[C@@H](NC(=O)[C@H](C)NC(=O)[C@H](Cc1cn(C=O)c2ccccc12)NC(=O)[C@H](CCC(N)=O)NC(=O)[C@@H](N)CC(N)=O)C(C)C)C(N)=O (stereo partly specified) ) = > 100 µM (inactive)

Reported GI50 ( CC(C)C[C@H](NC(=O)CCc1ccccc1)B(O)O ) = 5.87 µM (inactive)

Reported GI50 ( CCCC(O)c1cn(-c2cccc(S(=O)(=O)O)c2)nn1 (stereo unspecified) ) = > 100 µM (inactive)

Reported GI50 ( c1ccc2c(CC3NCCN3)cccc2c1 ) = > 100 µM (inactive)

###

Test system: NCI/ADR-RES
Protocol summary: NCI tumour cell line growth inhibition, 48 h
Calls of active or inactive are those of the source. Cut-off read from the data, not from the text of the source: active = GI50 up to about 1.1 µM and inactive = higher.
I would appreciate it if you answered using one of these outcomes: active, inactive

Below, 5 compounds whose answers are already recorded.
Smiles str | Target under test | Class assignment
O=C(CSc1nc2ccccc2s1)c1sc2sc3ccccc3[n+]2c1[O-] | NCI/ADR-RES | inactive
CC(C)(Oc1ccc(-c2cccc3ccccc23)cc1)C(=O)O | NCI/ADR-RES | inactive
O=Cc1ccc2c(c1)CC1(Cc3ccccc3C1)C2 | NCI/ADR-RES | inactive
CC(=O)Oc1ccccc1[C@H]1CC(=O)C[C@H](c2ccccc2OC(C)=O)C12C(=O)c1ccccc1C2=O | NCI/ADR-RES | inactive
CCc1n[nH]c(=O)n1CC | NCI/ADR-RES | inactive

How did this test come out for CC(=O)Nc1ccc2c(C)c3c(nc2n1)[nH]c1ccccc13 ?
inactive

How did this test come out for CN(C)/C=N/S(=O)(=O)c1nn2c(C=O)c(-c3ccccc3)nc2s1 ?
inactive

How did this test come out for CCN(CC)CCOc1ccccc1/C=C/c1noc2ccccc12 ?
inactive

How did this test come out for COC(=O)C1=C(OC)[C@H]2C#C/C=C\C#C[C@@H]3Nc4c(cc(O)c5c4C(=O)c4ccccc4C5=O)[C@]24O[C@@]34[C@H]1C ?
active

How did this test come out for C[N+](C)(CCCn1ccnc1[N+](=O)[O-])CCCn1ccnc1[N+](=O)[O-] ?
inactive
